# assay: log P determination by HPLC on reverse-phase column (C 18), EEC Directive 79/831 Annex V.A8
# Assay type: physicochemical
# conditionInfo: reverse-phase HPLC column (C 18), pH 2.3, haloketones of the formula (III); acidic range pH 2.3; 43° C.; read-out: logP*
quantityName: chromatographic logP

Input: Fill in chromatographic logP for record O=C(CCC(Cl)c1ccc(Br)cc1)c1c(F)cccc1F (stereo not shown) [III-1]
Output: 4.43

Origin of values: patent US20040097740A1
